Where do these numbers come from? They come from patent US20190002549A1.

# target_or_test_system: T1, recombinant human GM-CSF protein (human, UniProt P04141 18-144)
# T1 construct: Bought recombinant protein (Genscript); also called biotinylated human GM-CSF protein
# T1 sequence (P04141 18-144 limits assumed): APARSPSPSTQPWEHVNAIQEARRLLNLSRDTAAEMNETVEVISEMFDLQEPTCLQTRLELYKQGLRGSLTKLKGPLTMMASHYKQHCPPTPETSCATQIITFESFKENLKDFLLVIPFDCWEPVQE
# assay_comment: SPR Biacore T200, antibody captured by anti-human Fc, GM-CSF as analyte, 25 C, 1:1 model
value_type: koff (s⁻¹)
Output spec: scalar in s⁻¹, unitless text.

Item under review: Hu50C5-6 (antibody, V domains shown, Humanized; also called 35230Hu50C5-6) VH: EVQLVQSGAEVKKPGSSVKVSCKASGYIFSPYSIHWVRQAPGQGLEWMGYINPSTGYIEYNQHFKDRVTITADKSTSTAYMELRSLRSEDTAVYYCARGGDYEGYFDYWGQGTTVTVSS VL: DIQMTQSPSSLSASVGDRVTITCRLNENIYSFLAWYQQKPGKAPKLLIYNAETLAEGVPSRFSGSGSGTDFTLTISSLQPEDFATYYCQQHYGTPYTFGGGTKVEIK . Reported koff? 0.000138

Item under review: Hu50C5-23 (antibody, V domains shown, Humanized; also called 35230Hu50C5-23) VH: EVQLVQSGAEVKKPGSSVKVSCKASGYIFTPYSIHWVRQAPGQGLEWIGYINPSTGYIEYNQHFKDRTTLTADKSTSTAYMELRSLRSEDTAVYYCARGGDYEGYFDYWGQGTTVTVSS VL: DIQMTQSPSSLSASVGDRVTITCRLNENIYSFLAWYQQKPGKAPKLLVYNAETLAEDVPSRFSGSGSGTDFTLTISSLQPEDFATYYCQQHYGTPYTFGGGTKVEIK . Reported koff? 0.000125

Item under review: Hu23F4-6 (antibody, V domains shown, Humanized) VH: EVQLVQSGAEVKKPGATVKISCKVSGYTFTSHYLHWVQQAPGKGLEWMGWIFPGDDKTKYNEKFKGRVTITSDTSTDTAYMELSSLRSEDTAVYYCARGTKYLNWNFDVWGQGTTVTVSS VL: DIQLTQSPSFLSASVGDRVTITCKANQNVGTTLAWYQQKPGKAPKALIYSASYRYSGVPSRFSGSGSGTEFTLTISSLQPEDFATYYCHQYTTYPLTFGGGTKVEIK . Reported koff? 0.000135
